Experiment: M. tuberculosis growth inhibition, HTS (AID 449762);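 note: bacterial growth assessed after seven days of incubation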
Conditions: M. tuberculosis H37Rv growth inhibition, 7H9 media; at 25 µM; stronger effect = higher value
About 1,900 (0.58%) of roughly 330,000 compounds were called active. Not shown: some 4% with an inconclusive outcome. Not all results are given here. Results with a measured potency or affinity are listed apart.
recorded_endpoint: inhibition (%)

- molecule: "CN1CCN(c2ccc(NC(=O)c3ccc(-c4cccc([N+](=O)[O-])c4)o3)cc2)CC1"
  recorded_endpoint: "inhibition"
  scale_unit: "%"
  measured_value: 0.14
- molecule: "Cn1nnnc1Sc1ncnc2scc(-c3cccc4ccccc34)c12"
  recorded_endpoint: "inhibition"
  scale_unit: "%"
  measured_value: 61.1
- molecule: "Clc1nc(CN2CCOCC2)nc2sc3c(c12)CCC3"
  recorded_endpoint: "inhibition"
  scale_unit: "%"
  measured_value: 6.4
- molecule: "CC(C)(C)C(=O)N1CCN(c2ccc(NC(=O)c3ccco3)cc2)CC1"
  recorded_endpoint: "inhibition"
  scale_unit: "%"
  measured_value: 2.75
- molecule: "CCCCCNc1nc(-c2ccccc2)nc(-n2ccnc2)n1"
  recorded_endpoint: "inhibition"
  scale_unit: "%"
  measured_value: -1.97
- molecule: "Cc1ccc(N2C(=O)NC(=O)/C(=C\\C=C\\c3ccco3)C2=O)cc1"
  recorded_endpoint: "inhibition"
  scale_unit: "%"
  measured_value: -4.11
- molecule: "COc1ccccc1NC(=O)Nc1nc(CC(=O)NCc2c(F)cccc2F)cs1"
  recorded_endpoint: "inhibition"
  scale_unit: "%"
  measured_value: 29.2
- molecule: "COc1cccc(/C=C/C(=O)OCC(=O)Nc2ccc(N3CCOCC3)cc2)c1OC"
  recorded_endpoint: "inhibition"
  scale_unit: "%"
  measured_value: -2.5
- molecule: "O=C(CSc1nc2[nH]c(=O)cc(O)c2s1)Nc1ccc(Br)cc1"
  recorded_endpoint: "inhibition"
  scale_unit: "%"
  measured_value: -3.77
- molecule: "O=S(=O)(Nc1ccccc1)c1ccc(S(=O)(=O)N2CCCC2)cc1"
  recorded_endpoint: "inhibition"
  scale_unit: "%"
  measured_value: -1.05
- molecule: "CC(=C1C(=O)c2ccccc2C1=O)N1CCN(c2ccc(F)cc2)CC1"
  recorded_endpoint: "inhibition"
  scale_unit: "%"
  measured_value: -0.18
- molecule: "O=C(CN1CCCCC1)NC(=O)NC1CCCCC1"
  recorded_endpoint: "inhibition"
  scale_unit: "%"
  measured_value: -4.76
- molecule: "Cn1nnnc1Sc1ncnc2scc(-c3ccccc3)c12"
  recorded_endpoint: "inhibition"
  scale_unit: "%"
  measured_value: 15.1
- molecule: "CC(C)CN(C(=O)CCC(=O)OC(C)C(=O)Nc1cccc(C#N)c1)c1c(N)n(CC(C)C)c(=O)[nH]c1=O (stereo not drawn)"
  recorded_endpoint: "inhibition"
  scale_unit: "%"
  measured_value: -4.92
- molecule: "CC(C)CCOC(=O)C1[C@H]2C(=O)N(Cc3cccs3)C[C@]23C=C[C@H]1O3 (stereo partly drawn)"
  recorded_endpoint: "inhibition"
  scale_unit: "%"
  measured_value: 0.09
- molecule: "O=C(NCCCl)Nc1ccc(Cl)c([N+](=O)[O-])c1"
  recorded_endpoint: "inhibition"
  scale_unit: "%"
  measured_value: -1.56
- molecule: "CCOC(=O)c1ccccc1NC(=O)c1cccc2c1C(=O)N(C1CCN(C(=O)OCC)CC1)C2"
  recorded_endpoint: "inhibition"
  scale_unit: "%"
  measured_value: -3.66
- molecule: "COCCNC(=S)Nc1ccc2nc(N3CCOCC3)cc(C)c2c1"
  recorded_endpoint: "inhibition"
  scale_unit: "%"
  measured_value: -5.25
- molecule: "Cc1cc(C(=O)N2CCN(Cc3ccccc3)CC2)on1"
  recorded_endpoint: "inhibition"
  scale_unit: "%"
  measured_value: 4.33
- molecule: "COc1ccccc1CC(=O)N1CCN(c2ccccc2F)CC1"
  recorded_endpoint: "inhibition"
  scale_unit: "%"
  measured_value: 3
- molecule: "CC(Oc1ccc(-c2nccc(-c3ccccn3)n2)cc1)C(=O)NN (stereo not drawn)"
  recorded_endpoint: "inhibition"
  scale_unit: "%"
  measured_value: -4.92
- molecule: "CC(C)Nc1nc(-c2ccccc2)nc(-n2ccnc2)n1"
  recorded_endpoint: "inhibition"
  scale_unit: "%"
  measured_value: 12.9
- molecule: "O=C(Nc1ccc2nsnc2c1)C1CC1"
  recorded_endpoint: "inhibition"
  scale_unit: "%"
  measured_value: 0.63

Origin of measurements: PubChem BioAssay AID449762
